Consider the following substances and their measured Relative inhibition rate (%) of FXI protein readings.
# Tested on: human coagulation factor XI protein
# Experiment: In vivo activity in human coagulation factor XI model mice (Experimental Example 3), plasma FXI protein by ELISA
# Applied conditions: humanized mice, single subcutaneous 5 mg/kg, D14
Give just the numeric value; % need not be written.

Examples from the recorded data:
[[record]]
substance = "TD01M02L01: siRNA ligand conjugate: TD01M02 with L01 (GalNAc) ligand at 3' end of sense strand SEQ ID NO 31; antisense SEQ ID NO 32 (sense GATCTCCAACTAAAATACT; antisense AGTATTTTAGTTGGAGATCCG; GalNAc L01 ligand at sense 3' end, 2'-OMe/2'-F, pattern not given here)"
assay_result = 93.1

[[record]]
substance = "TD02M01L01: siRNA ligand conjugate: TD02M01 with L01 (GalNAc) ligand at 3' end of sense strand SEQ ID NO 33; antisense SEQ ID NO 34 (sense GGATGATTTTCTTATATCA; antisense TGATATAAGAAAATCATCCTG; GalNAc L01 ligand at sense 3' end, 2'-OMe/2'-F, pattern not given here)"
assay_result = 94.0


Now look at this one.
Query string: What value of Relative inhibition rate (%) of FXI protein on human coagulation factor XI protein does TD01M01L01: siRNA ligand conjugate: TD01M01 with L01 (GalNAc) ligand at 3' end of sense strand SEQ ID NO 29; antisense SEQ ID NO 30 (sense GATCTCCAACTAAAATACT; antisense AGTATTTTAGTTGGAGATCCG; GalNAc L01 ligand at sense 3' end, 2'-OMe/2'-F, pattern not given here) have?
Result string: 92.8
